# target_desc: JAK3 (Homo sapiens)
# Construct: made in house; host or cells: SF9 insect cells (baculovirus)
# Sequence (P52333 783-1124): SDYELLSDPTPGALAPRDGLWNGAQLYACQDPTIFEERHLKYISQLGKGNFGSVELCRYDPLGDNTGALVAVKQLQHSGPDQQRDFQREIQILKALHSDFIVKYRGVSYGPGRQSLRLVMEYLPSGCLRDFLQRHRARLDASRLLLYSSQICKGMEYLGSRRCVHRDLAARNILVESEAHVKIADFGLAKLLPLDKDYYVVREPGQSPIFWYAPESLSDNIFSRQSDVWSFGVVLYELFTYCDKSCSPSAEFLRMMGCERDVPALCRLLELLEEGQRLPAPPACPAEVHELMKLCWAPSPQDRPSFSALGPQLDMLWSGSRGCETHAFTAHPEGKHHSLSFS
# measurement_description: JAK3 inhibition (Table 4)
# Assay type: biochemical
# settings: read-out: JAK3 Ki
pKi: −log10 of the molar value.
measurement_name: pKi

Guide cases for pKi, answers given:
>>> reported("CN(C)C(=O)CN1CCC(n2cnc3cnc4[nH]ccc4c32)CC1")
6.41
>>> reported("COC1CNCCC1n1nnc2cnc3[nH]ccc3c21 (racemic)")
5.99
>>> reported("N#CCN1CCC(N[C@H]2CC[C@H](n3cnc4cnc5[nH]ccc5c43)CC2)CC1")
7.22
>>> reported("O=C(N[C@H]1CC[C@H](n2cnc3cnc4[nH]ccc4c32)CC1)c1ccncc1")
6.94
>>> reported("CC(C)(C)OC(=O)NC1CCCC(n2cnc3cnc4[nH]ccc4c32)C1 (single isomer, unassigned) [Example 477]")
6.63
>>> reported("CCN1CCC(n2c(CCNS(C)(=O)=O)nc3cnc4[nH]ccc4c32)C(F)(F)C1 (single isomer, unassigned) [Example 805]")
8.05
>>> reported("O=S(=O)(C1CC1)N1CCC[C@@H](n2cnc3cnc4[nH]ccc4c32)C1")
7.41
>>> reported("C[C@@H](O)c1nc2cnc3[nH]ccc3c2n1[C@H]1CCNC1")
5.94

[I] CN(CC(F)(F)F)C(=O)NC1CCC(n2cnc3cnc4[nH]ccc4c32)C1 (racemic)
[II] N#CCCN1CCC(n2c(Cc3cccc(C#N)c3)nc3cnc4[nH]ccc4c32)CC1
When the recorded pKi values are compared, which is smaller: that of I or that of II ? Answer by stating the label of the chosen item. II

[I] Cc1nc2cnc3[nH]ccc3c2n1[C@H]1CC[C@@H](NCC(F)(F)F)C1
[II] CC(=O)N(C)CCc1nc2cnc3[nH]ccc3c2n1C1CCN(CCC#N)CC1
Task for the reader: decide whether I or II has the larger pKi. Choose, then provide that item's label. I
(I: 7.66, II: 7.15)

[1] CCCC1(n2c(C)nc3cnc4[nH]ccc4c32)CC1
[2] OC1CCCC(n2nnc3cnc4[nH]ccc4c32)C1 (single isomer, unassigned) [Example 551]
Hi team, can someone confirm which has the larger pKi: 1 or 2 ? Thanks. Give the label under which the chosen entry appears. 1

[1] CS(=O)(=O)N1CC[C@@H](n2cnc3cnc4[nH]ccc4c32)C1
[2] N#CCCN1CCC(n2c(CC(=O)N3CCS(=O)(=O)CC3)nc3cnc4[nH]ccc4c32)CC1
Which is greater in pKi, the first item 1 or the second item 2 ? Lab note: record the label of whichever item you select. 2
(2: 8.15, 1: 7.23)

[I] CNc1nc2cnc3[nH]ccc3c2n1C1CCN(Cc2cccc(C#N)c2)CC1
[II] COCC(=O)NC1CCCC(n2cnc3cnc4[nH]ccc4c32)C1 (single isomer, unassigned) [Example 480]
Endpoint returns the identifier whose pKi is numerically larger, either I or II . Respond using the label that marks the chosen record. I

[A] N#CCCN[C@H]1CC[C@H](n2cnc3cnc4[nH]ccc4c32)CC1
[B] COCC(=O)NC1CCC(n2cnc3cnc4[nH]ccc4c32)CC1 (centres unmarked)
Smaller pKi value, A vs B ? Response format: the label of the selected entry. B

[1] O=C(Cc1nc2cnc3[nH]ccc3c2n1C1CCCOC1)N1CCC(O)CC1 (racemic)
[2] C[C@@H](O)c1nc2cnc3[nH]ccc3c2n1[C@H]1CC[C@H](CC#N)CC1
Could you tell me which of these two has the smaller pKi figure? First: 1 Second: 2 # answer = label of selected item 1

[a] FC1(F)CN(Cc2ccccc2)CCC1n1cnc2cnc3[nH]ccc3c21 (centres unmarked)
[b] CC(C)(O)[C@H]1CC[C@H](n2cnc3cnc4[nH]ccc4c32)CC1
Param metric = pKi; output whichever of a , b has the minimum value. Output the label that corresponds to your choice. b
